System: UACC-257 melanoma
Assay: NCI tumour cell line growth inhibition, 48 h
parameter.measured: TGI

[
  {
    "compound": "Cc1ccc2nc(NC(=O)C(=O)CC(=O)c3cccc4ccccc34)sc2c1",
    "TGI": "82.2 µM"
  },
  {
    "compound": "O=S1(=O)c2ccccc2N=C(c2ccccc2Cl)CC1c1ccc(F)cc1 (stereo unspecified)",
    "TGI": "24.7 µM"
  }
]

Now consider a different compound.
Record `Cc1ccc(/C=N/NS(=O)(=O)c2ccccc2)c(C)c1` ; system UACC-257 melanoma; TGI = > 100 µM

----------
Tested on: K-562 leukemia
Assay: NCI tumour cell line growth inhibition, 48 h
The entries below are paired with their reported TGI.

Example results:
[
  {
    "compound": "COc1ccc(C(=O)c2cc3c(N)c(C(=O)Nc4cccc(OC)c4)sc3nc2C)cc1",
    "TGI": "> 100 µM"
  },
  {
    "compound": "COc1cc(-c2cc(=O)c3c(O)c(OC)c(OC)c(OC)c3o2)cc(OC)c1OC",
    "TGI": "> 100 µM"
  },
  {
    "compound": "COc1ccc(C2=NC(c3ccc(Cl)cc3)C(c3ccc(Cl)cc3)N2C(=O)N2CCNC(=O)C2)c(OC(C)C)c1 (centres undefined)",
    "TGI": "> 10 µM"
  },
  {
    "compound": "Oc1ccc(Cl)cc1/C=N\\NC(=S)N/N=C/c1cc(Cl)ccc1O",
    "TGI": "> 100 µM"
  },
  {
    "compound": "C=C(C)[C@@H]1CC[C@]2(C(=O)NC(C)=O)CC[C@]3(C)[C@H](CC[C@@H]4[C@@]5(C)CCCNC(C)(C)[C@@H]5CC[C@]43C)[C@@H]12",
    "TGI": "3.18 µM"
  }
]

compound `Nc1cc2c3c(cccc3c1)C(=O)N(c1ccc(OCCN3CCCC3)cc1)C2=O` , TGI observed: 49.2 µM

compound COc1ccc(C)cc1C1CCC(=O)O1 (centres undefined) , TGI observed: > 100 µM

compound `CN1CN(C(=O)N2CN(C)C(=O)N(C)C2)CN(C)C1=O` , TGI observed: > 100 µM

compound `Cc1cc(Br)cc(C)c1NC(=O)C(=O)Nn1c(=S)[nH]c2ccccc2c1=O` , TGI observed: > 100 µM

----------
The entries below are paired with their reported TGI.
Tested on: RPMI-8226 leukemia
Test: NCI tumour cell line growth inhibition, 48 h
Answer in µM, number only, no unit symbol.

Example results:
[
  {
    "compound.structure": "C/C(=N/O)c1ccc(Nc2cc(-n3ccnc3)c3ccccc3n2)cc1",
    "measured.target": "RPMI-8226 leukemia",
    "reported.value": 4.42
  },
  {
    "compound.structure": "NS(=O)(=O)c1ccc(NC(=O)c2cccc(NC3=C(Cl)C(=O)N(Cc4ccccc4)C3=O)c2)cc1",
    "measured.target": "RPMI-8226 leukemia",
    "reported.value": 14.7
  }
]

Now consider a different molecule.
molecule `CCCCCCCCCCSC(=N)N` , TGI observed: 4.19

----------
Test system: OVCAR-3 ovarian
Test: NCI tumour cell line growth inhibition, 48 h
TGI of 30 µM or higher: T. Under 30 µM: F.

[
  {
    "compound": "COC(=O)c1ccc(NCC2=C(Br)C(=O)C=CC2=O)cc1Cl",
    "category": "F"
  },
  {
    "compound": "CCCCC[C@H]1CCCCCCCCCC(=O)OC2C(O[C@@H]3OC(C)[C@H](OC(=O)[C@@H](C)CC)C(O[C@@H]4OC(C)[C@H](O)C(O)[C@@H]4O)[C@@H]3OC(=O)[C@H](C)CC)[C@H](OC3C(O)[C@@H](O)C(C)O[C@H]3O1)OC(CO)[C@H]2O (some centres undefined)",
    "category": "T"
  },
  {
    "compound": "O=C1N(c2ccccc2)C(=S)/C(=C/c2ccc(Cl)cc2)N1c1ccc(Cl)cc1",
    "category": "T"
  },
  {
    "compound": "O=c1cc(N2CCCC2)[nH]c(=O)n1-c1ccc(Cl)cc1",
    "category": "T"
  },
  {
    "compound": "COC(=O)c1cc(/C=C\\c2cc(OC)ccc2OC)ccc1OC",
    "category": "T"
  }
]

Query: Please tell me: is the compound `O=c1[nH]nc(-c2ccccc2)n1-n1cnnc1` at or over 30 µM in terms of TGI?
Reply: T

Query: Please tell me: is the compound `O=C1C=Cc2ncccc2C1=O` at or over 30 µM in terms of TGI?
Reply: T

Query: Please tell me: is the compound `O=C(N/N=C\c1ccc([N+](=O)[O-])s1)c1ccncc1` at or over 30 µM in terms of TGI?
Reply: F

Query: Please tell me: is the compound `C=CCNC(=S)/N=C/C(C(=O)Nc1ccccc1C)=C(\C)O` at or over 30 µM in terms of TGI?
Reply: T

----------
Tested on: M14 melanoma
Test: NCI tumour cell line growth inhibition, 48 h
The entries below are paired with their reported TGI.

[
  {
    "molecule": "O=C1CC(c2ccccc2)S(=O)c2ccccc2N1 (stereo unspecified)",
    "reported.value": "> 100 µM"
  },
  {
    "molecule": "O=C(Nc1nc2ccccc2s1)c1cc(-c2ccc(F)cc2)n2nc(-c3ccccc3)cc2n1",
    "reported.value": "> 100 µM"
  },
  {
    "molecule": "CCOC(=O)CC(NC(=O)c1ccc(N=NN(C)C)cc1)C(=O)OCC (stereo unspecified)",
    "reported.value": "> 100 µM"
  }
]

Record `Cc1ccc(-c2n[nH]c(=O)c3noc(-c4ccc(C)cc4)c23)cc1` ; system M14 melanoma; TGI = > 100 µM

----------
Tested on: NCI-H522 lung
Test: NCI tumour cell line growth inhibition, 48 h; in the data active means GI50 below about 0.43 µM; inactive means the rest
Classes to choose from: Y (active), N (inactive)

Illustrative cases are given below, each with its answer.
[
  {
    "compound": "O=C(/C=C/c1cccc2ccccc12)Nc1ncc(Cc2ccccc2)s1",
    "category": "N"
  },
  {
    "compound": "COc1ccc(-c2nc(C(=O)c3ccccc3)n(CC(=O)c3ccc(Cl)cc3)c2-c2ccc(OC)cc2)cc1",
    "category": "N"
  },
  {
    "compound": "C=C(C)[C@@H]1CC[C@]2(CO)CC[C@]3(C)[C@H](CC[C@@H]4[C@@]5(C)CC[C@H](NCO)C(C)(C)[C@@H]5CC[C@]43C)[C@@H]12",
    "category": "N"
  }
]

Query: Fill in: this test's call for O=C1/C(=C\c2ccccc2)C2OCC=C3CN4CCC56c7ccccc7N1C5C2C3CC46 (configuration not stated) is ___
Reply: N

Query: Fill in: this test's call for `COc1cc(Cn2c(-c3ccccc3)cc3c2-c2oncc2CC3)cc(OC)c1` is ___
Reply: Y

Query: Fill in: this test's call for `CCCCCCCCCCSC(=N)N` is ___
Reply: N

Query: Fill in: this test's call for `CC(=O)[C-](C(C)=O)c1ccccc1.CC(=O)[C-](C(C)=O)c1ccccc1.CC(=O)[C-](C(C)=O)c1ccccc1.[Cl-].[Zr+4]` is ___
Reply: N

Query: Fill in: this test's call for `COc1cc(/C=N/NC(=O)c2ccccc2Nc2cccc(C(F)(F)F)c2)cc(OC)c1OC` is ___
Reply: N

----------
Below are GI50 values recorded for NCI-H460 lung.

Example results:
[
  {
    "compound": "COc1ccc(C2=NC(c3ccc(Cl)cc3)C(c3ccc(Cl)cc3)N2C(=O)N2CCNC(=O)C2)c(OC(C)C)c1 (stereo not given)",
    "reported.value": "1.95 µM"
  },
  {
    "compound": "CCOC(=O)c1c(C)n(Cc2ccccc2)c2c1cc1oc(=O)c(=O)n3cnc2c13",
    "reported.value": "15.9 µM"
  },
  {
    "compound": "CC(/C=N/N=C(N)N)=N\\N=C(N)N",
    "reported.value": "26.3 µM"
  },
  {
    "compound": "COc1ccc(C(=O)c2cc3c(N)c(C(=O)Nc4cccc(OC)c4)sc3nc2C)cc1",
    "reported.value": "0.741 µM"
  }
]

compound `COc1ccc(C2=Nc3c/c(=C\c4c(O)[nH]c5cc(Cl)ccc45)ccc3=N2)cc1` , GI50 observed: 8.01 µM

compound `COc1ccc2c(c1)/C(=N/OC(C)=O)c1c-2cnc2ccccc12` , GI50 observed: 30.3 µM

compound `NS(=O)(=O)c1ccc(NC(=O)c2cccc(NC3=C(Cl)C(=O)N(Cc4ccccc4)C3=O)c2)cc1` , GI50 observed: 10.5 µM

compound `CN=C(N)N/N=C(\C)c1ccc2c(c1)Cc1ccccc1-2` , GI50 observed: 0.556 µM

compound `COc1ccc(-c2n/c(=C\c3c(O)[nH]c4ccccc34)cc3c2=Nc2ccccc2-3)cc1` , GI50 observed: 1.68 µM

compound `C/C(=N/O)c1ccc(Nc2cc(-n3ccnc3)c3ccccc3n2)cc1` , GI50 observed: 21.5 µM
